Sourced from patent US20110183978A1

Tested on: Alternaria solani
test_description: Example M: in vivo test on Alternaria solani (leaf blotch disease/tomato/protective)
test_conditions: 168 h, tomato, protective, 500 ppm active substance, assessed 7 days after inoculation, read-out: % Wirkungsgrad (activity level)
readout_kind: pest or weed control at 500 ppm (%)
Numbers only, in %.

Below, each entry is followed by its recorded pest or weed control at 500 ppm result.
[[record]]
compound = "CC(C)n1cc(-c2ccnc3[nH]cnc23)c(-c2ccc(F)cc2)n1"
readout_kind = "pest or weed control at 500 ppm"
unit_spec = "%"
measured = 95

[[record]]
compound = "COCC(=O)Nc1cc(-c2cn(CCCl)nc2-c2ccc(F)cc2)ccn1"
readout_kind = "pest or weed control at 500 ppm"
unit_spec = "%"
measured = 95

[[record]]
compound = "COCC(=O)Nc1cc(-c2cn(C3CC3)nc2-c2ccc(F)cc2)ccn1"
readout_kind = "pest or weed control at 500 ppm"
unit_spec = "%"
measured = 70


Batch: pest or weed control at 500 ppm for all items listed.
1. N#Cc1ccccc1Cn1cc(-c2ccncc2)c(-c2ccc(F)cc2)n1
2. CC(C)C(=O)Nc1cc(-c2cn(C)nc2-c2ccc(F)cc2)ccn1
3. COCC(=O)Nc1cc(-c2cn(CC(C)C)nc2-c2ccc(F)cc2)ccn1

Outgoing:
95
80
95

Count: 6. Required value per item: pest or weed control at 500 ppm.
1. CC(C)n1cc(-c2ccnc(NC(C)C(F)(F)F)c2)c(-c2ccc(F)cc2)n1 (stereo not drawn)
2. CC(C)n1cc(-c2ccnc(NC(=O)[C@H](C)O)c2)c(-c2ccc(F)cc2)n1
3. CC(C)C(=O)Nc1cc(-c2cn(C(C)C)nc2-c2ccc(F)cc2)ccn1
4. O=C1OCCC1n1cc(-c2ccncc2)c(-c2ccc(F)cc2)n1 (stereo not drawn)
5. CCC(=O)Nc1cc(-c2cn(C)nc2-c2ccc(F)cc2)ccn1
6. Fc1ccc(-c2nn(CC3CC3)cc2-c2ccncc2)cc1

Outgoing:
80
100
95
94
100
95

Provide pest or weed control at 500 ppm values for the following items, in order.
1. CC(C)Cn1cc(-c2ccnc(NC(=O)CC3CC3)c2)c(-c2ccc(F)cc2)n1
2. CC(C)On1cc(-c2ccncc2)c(-c2ccc(F)cc2)n1
3. CCOCCn1cc(-c2ccncc2)c(-c2ccc(F)cc2)n1

Outgoing:
1. 94
2. 95
3. 100

---

test_description: physchem
test_conditions: pH 2.3, LogP (pH 2.3)
readout_kind: chromatographic logP

[[record]]
compound = "CC(C)On1cc(Br)c(-c2ccc(F)cc2)n1 [[VI-25]]"
measured = 4.11

[[record]]
compound = "CCCn1cc(Br)c(-c2ccc(F)cc2)n1 [[VI-14]]"
measured = 3.89

[[record]]
compound = "CC(C)On1cc(B2OC(C)(C)C(C)(C)O2)c(-c2ccc(F)cc2)n1 [[V-5]]"
measured = 4.81

[[record]]
compound = "CC(C)n1nc(-c2ccc(F)cc2)c(Br)c1OC(F)F [[VI-b-2]]"
measured = 4.61

[[record]]
compound = "CC1(C)OB(c2cn(CCCl)nc2-c2ccc(F)cc2)OC1(C)C [[V-10]]"
measured = 4.06

[[record]]
compound = "CC(C)Cn1cc(Br)c(-c2ccc(F)cc2)n1 [[VI-4]]"
measured = 4.34

[[record]]
compound = "N#CCCn1cc(Br)c(-c2ccc(F)cc2)n1 [[VI-23]]"
measured = 2.69

[[record]]
compound = "Cn1nc(-c2ccc(F)cc2)c(Br)c1OC(F)F [[VI-b-1]]"
measured = 3.52


Required: chromatographic logP, one value per compound below.
1. CC1(C)OB(c2cn(CC(F)F)nc2-c2ccc(F)cc2)OC1(C)C [[V-4]]
2. CC(C)(C)OC(=O)N1CCC(n2cc(Br)c(-c3ccc(F)cc3)n2)CC1 [[VI-27]]
3. Cn1cc(B2OC(C)(C)C(C)(C)O2)c(-c2ccc(F)cc2)n1 [[V-9]]

Outgoing:
3.84
4.77
3.47

---

Kindly state pest or weed control at 500 ppm for each of the entries shown.
Tested on: Alternaria solani
test_description: Example M: in vivo test on Alternaria solani (leaf blotch disease/tomato/protective)
test_conditions: 168 h, tomato, protective, 500 ppm active substance, assessed 7 days after inoculation, read-out: % Wirkungsgrad (activity level)
One number for each entry, in %.

Lab note: each compound below needs its pest or weed control at 500 ppm filled in.
1. CC(C)n1cc(-c2ccncc2)c(-c2ccc(F)cc2)n1
2. CC(C)C(=O)Nc1cc(-c2cn(CCC#N)nc2-c2ccc(F)cc2)ccn1
3. CC(C)(O)C(=O)Nc1cc(-c2cn(CC(F)F)nc2-c2ccc(F)cc2)ccn1

Outgoing:
1. 89
2. 100
3. 100
